# Tested on: wheat germ agglutinin (Triticum aestivum), Alexa647-labelled
# Method Notes: wheat germ agglutinin binders on compound microarrays, profiling panel, artefact control for SMM control-protein annotation, biochemical, small-molecule microarray, 635/667 nm fluorescence (AID 1140);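 also: score merges 667 nm feature emission with signal to noise over triplicate slides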
# Run Parameters: WGA-A647 binding, 635 nm fluorescence, higher = more signal
Listing of recorded composite z-score by entry.
Value Type: composite z-score

>>> value_measured("C=C(/C(=C/C[C@@H](OC(C)=O)c1ccc(CO)o1)c1cc(C(=O)OC)ccc1OC)C(C)C")
0.427
>>> value_measured("CCOC(=O)C[C@H]1[C@H](OC(=O)c2ccccc2-c2ccccc2)[C@@H](NC(=O)c2ccc3ccccc3n2)c2cc(OCCCO)ccc2N1C(=O)c1ccccc1")
0.857
>>> value_measured("COc1ccc([Si](C)(C)[C@H]2[C@H](CC(=O)N3Cc4ccccc4C[C@H]3CO)O[C@@]3(C(=O)N(Cc4ccc(N5C(=O)c6cccc7cccc5c67)cc4)c4ccccc43)[C@@H]2C)cc1")
0.237
>>> value_measured("COCCOC(=O)N1C(=O)[C@@]2(c3ccccc31)[C@H](c1ccc(OCCO)cc1)N1[C@H](c3ccccc3)[C@H](c3ccccc3)OC(=O)[C@H]1[C@@H]2C(=O)N1CCCCCCC1")
1.76
>>> value_measured("COc1ccc([Si](C)(C)[C@H]2[C@H](CCO)O[C@@]3(C(=O)N(Cc4ccccc4)c4ccc(N5CCOC5=O)cc43)[C@@H]2C)cc1")
0.986
>>> value_measured("COCCOC(=O)N1C(=O)[C@@]2(c3cc(C#CCC(C(=O)OC)C(=O)OC)ccc31)[C@H](c1ccc(OCCO)cc1)N1[C@H](c3ccccc3)[C@H](c3ccccc3)OC(=O)[C@H]1[C@@H]2C(=O)Nc1nc2ccccc2s1")
0.671
>>> value_measured("C=C(CCCC)/C(=C/C[C@H](OC(C)=O)c1ccc(OCCO)cc1)c1cc(C(=O)OC)ccc1OC")
0.775
>>> value_measured("C=C(C(=O)CC[C@H](OC(=O)c1ccccc1-c1ccccc1C(=O)O)c1ccccc1OCCO)C(C)C")
0.423
>>> value_measured("CO[C@H]1O[C@H](CO)[C@@H](OC(=O)Nc2ccc(C#N)cc2)[C@@H]2OC(=O)[C@H](Cc3cccc(Br)c3)C/C=C/C[C@@H](Cc3cccc(Br)c3)C(=O)O[C@@H]12")
0.655
>>> value_measured("COCCOC(=O)N1C(=O)[C@@]2(c3cc(C#CCC(C(=O)OC)C(=O)OC)ccc31)[C@H](C(=O)NC[C@H](O)c1ccccc1)[C@H]1C(=O)O[C@H](c3ccccc3)[C@H](c3ccccc3)N1[C@@H]2c1ccc(OCCO)cc1")
0.309
>>> value_measured("C=C[C@@H](C)[C@@H](OC(=O)Nc1ccc(SC)cc1)c1ccc(OCCO)cc1")
1.04
>>> value_measured("CC(C)C[C@@H]1NC(=O)CNC(=O)[C@@]23C(=O)N[C@@H](Cc4ccccc4)C2[C@H](C)[C@@]2(C)O[C@H]2C3/C=C/C/C=C\\CNC1=O (some centres not stated)")
-0.0197
